- System: Phospho-ERK in LC-2/ad lung cancer cells
- Test protocol: Phospho-ERK ELISA in LC-2/ad tumor cells
- Type: cell-based
- Setup conditions: Homo sapiens, 1 h, read-out: Cell IC50 Phospho-ERK
Endpoint name: IC50 (nM)
Write the value in nM as a bare number.

Recorded IC50, per entry:
- Structure: "Cn1cc(-c2cn3ncc(C#N)c3c(-c3ccc(N4CCC(N=[S@](C)(=O)c5ccccc5)CC4)nc3)n2)cn1"
  Quantitative readout: 9.27
- Structure: "Cn1cc(-c2cc(-c3ccc(N4CCC(N=S(C)(C)=O)CC4)nc3)c3c(C#N)cnn3c2)cn1"
  Quantitative readout: 7.19

Form field: reported IC50 of Cn1cc(-c2cc(-c3ccc(N4CCS(=N)(=O)CC4)nc3)c3c(C#N)cnn3c2)cn1
246

So what does the record say about IC50 for COc1ccc(CN=S2(=O)CCN(c3ccc(-c4nc(-c5cnn(C)c5)cn5ncc(C#N)c45)cn3)CC2)cn1 ?
6.42

Which IC50 is listed for CC(C)CN=S1(=O)CCN(c2ccc(-c3cc(-c4cnn(C)c4)cn4ncc(C#N)c34)cn2)CC1 ?
6.55

// lookup IC50 for COc1ccc(N=S2(=O)CCN(c3ccc(-c4cc(-c5cnn(C)c5)cn5ncc(C#N)c45)cn3)CC2)cn1
321

Which IC50 is listed for Cn1cc(-c2cn3ncc(C#N)c3c(-c3ccc(N4CCS(=N)(=O)CC4)nc3)n2)cn1 ?
7.77

Give the measured IC50 of COc1ccc(CN=S2(=O)CCN(c3ccc(-c4cc(-c5cnn(C)c5)cn5ncc(C#N)c45)cn3)CC2)cn1 .
82.5

What value of measured IC50 is listed for Cn1cc(-c2cc(-c3ccc(N4CCC(N=[S@](C)(=O)c5ccccc5)CC4)nc3)c3c(C#N)cnn3c2)cn1 ?
6.83
